Assay: AUC (0 to infinity) in wildtype FVB mouse at 10 mg/kg, po
Assay type: ADME, organism-based
Set-up: time infinity, dose 10 mg/kg, route oral
Conditions: plasma
PROPERTY LABEL: AUC(0-inf) (µM·h)
Number only, in µM·h; omit the unit.

Entry "CC(C)=CCC[C@](C)(O[C@@H]1O[C@H](CO)[C@@H](O)[C@H](O)[C@H]1O)[C@H]1CC[C@]2(C)[C@@H]1[C@H](O)C[C@@H]1[C@@]3(C)CC[C@H](O)C(C)(C)[C@@H]3CC[C@]12C" ; AUC(0-inf) = 0.75

====

Assay: Efflux ratio of permeability from basolateral to apical side over apical to basolateral side in human Caco2 cells
Settings: Caco-2
PROPERTY LABEL: efflux ratio
Please state the value as a number alone, without comment.

Entry "C[C@H]1O[C@@H](O[C@H]2[C@@H](O)C[C@H](O[C@H]3[C@@H](O)C[C@H](O[C@H]4CC[C@@]5(C)[C@H](CC[C@@H]6[C@@H]5C[C@@H](O)[C@]5(C)[C@@H](C7=CC(=O)OC7)CC[C@]65O)C4)O[C@@H]3C)O[C@@H]2C)C[C@H](O)[C@@H]1O" ; efflux ratio = 21

====

Test: Efflux ratio of permeability from basolateral to apical side over apical to basolateral side in MDCK2 cells at 2 uM
Type: ADME, cell-based, Canis lupus familiaris, MDCK-II
Settings: dog, MDCK
PROPERTY LABEL: efflux ratio at 2 µM
Please state the value as a number alone, without comment.

Entry "CC(C)=CCC[C@](C)(O[C@@H]1O[C@H](CO)[C@@H](O)[C@H](O)[C@H]1O)[C@H]1CC[C@]2(C)[C@@H]1[C@H](O)C[C@@H]1[C@@]3(C)CC[C@H](O)C(C)(C)[C@@H]3CC[C@]12C" ; efflux ratio at 2 µM = 1.8

====

Assay: Tmax in wildtype FVB mouse at 10 mg/kg, po
Format: ADME, organism-based
Set-up: dose 10 mg/kg, route oral
Conditions: in vivo
PROPERTY LABEL: Tmax (h)
Number only, in h; omit the unit.

Entry "CC(C)=CCC[C@](C)(O[C@@H]1O[C@H](CO)[C@@H](O)[C@H](O)[C@H]1O)[C@H]1CC[C@]2(C)[C@@H]1[C@H](O)C[C@@H]1[C@@]3(C)CC[C@H](O)C(C)(C)[C@@H]3CC[C@]12C" ; Tmax = 2.8

====

Test: AUC (0 to infinity) in MDR1a/b(-/-) FVB mouse at 10 mg/kg, po
Type: ADME, organism-based
Set-up: time infinity, dose 10 mg/kg, route oral
Details: plasma
PROPERTY LABEL: AUC(0-inf) (µM·h)
Number only, in µM·h; omit the unit.

Entry "CC(C)=CCC[C@](C)(O[C@@H]1O[C@H](CO)[C@@H](O)[C@H](O)[C@H]1O)[C@H]1CC[C@]2(C)[C@@H]1[C@H](O)C[C@@H]1[C@@]3(C)CC[C@H](O)C(C)(C)[C@@H]3CC[C@]12C" ; AUC(0-inf) = 17.6

====

Assay: Half life in wildtype FVB mouse at 10 mg/kg, po
Format: ADME, organism-based
Design: dose 10 mg/kg, route oral
Details: in vivo
PROPERTY LABEL: half-life
Be sure to follow the number with its unit.

Entry "CC(C)=CCC[C@](C)(O[C@@H]1O[C@H](CO)[C@@H](O)[C@H](O)[C@H]1O)[C@H]1CC[C@]2(C)[C@@H]1[C@H](O)C[C@@H]1[C@@]3(C)CC[C@H](O)C(C)(C)[C@@H]3CC[C@]12C" ; half-life = 5.87 h
